# condition.set: 278.15 K; 101 kPa; Liquid; Falling or rolling sphere viscometry
value.kind: viscosity (mPa·s)
Answers are plain numbers, in mPa·s.

Illustrative cases are given below, each with its answer.
compound | viscosity / mPa·s
CCCCCC[n+]1ccn(C)c1.O=S(=O)([N-]S(=O)(=O)C(F)(F)F)C(F)(F)F | 211.31
CCn1cc[n+](C)c1.O=S(=O)([N-]S(=O)(=O)C(F)(F)F)C(F)(F)F | 75.08
CCO [ethanol] | 1.59

## Input Recorded viscosity of `CCCC[n+]1ccn(C)c1.O=S(=O)([N-]S(=O)(=O)C(F)(F)F)C(F)(F)F` , please.
## Output 139.82

----------
# condition.set: 298.15 K; 101 kPa; Liquid; Sing-around technique in a fixed-path interferometer
value.kind: speed of sound (m/s)
Numbers only, in m/s.

Illustrative cases are given below, each with its answer.
structure.string | speed of sound, m/s
CCCC[n+]1ccn(C)c1.O=S(=O)([N-]S(=O)(=O)C(F)(F)F)C(F)(F)F | 1227.5
CCO | 1143.1
CCCCCC[n+]1ccn(C)c1.O=S(=O)([N-]S(=O)(=O)C(F)(F)F)C(F)(F)F | 1226.8

Next:
## Input Recorded speed of sound of `CCn1cc[n+](C)c1.O=S(=O)([N-]S(=O)(=O)C(F)(F)F)C(F)(F)F` , please.
## Output 1240.1
